Record: pIC50 reported on NaV1.5 (Homo sapiens (Human)).
Sequence (Q14524 other isoform, or with tags, fused parts or gaps): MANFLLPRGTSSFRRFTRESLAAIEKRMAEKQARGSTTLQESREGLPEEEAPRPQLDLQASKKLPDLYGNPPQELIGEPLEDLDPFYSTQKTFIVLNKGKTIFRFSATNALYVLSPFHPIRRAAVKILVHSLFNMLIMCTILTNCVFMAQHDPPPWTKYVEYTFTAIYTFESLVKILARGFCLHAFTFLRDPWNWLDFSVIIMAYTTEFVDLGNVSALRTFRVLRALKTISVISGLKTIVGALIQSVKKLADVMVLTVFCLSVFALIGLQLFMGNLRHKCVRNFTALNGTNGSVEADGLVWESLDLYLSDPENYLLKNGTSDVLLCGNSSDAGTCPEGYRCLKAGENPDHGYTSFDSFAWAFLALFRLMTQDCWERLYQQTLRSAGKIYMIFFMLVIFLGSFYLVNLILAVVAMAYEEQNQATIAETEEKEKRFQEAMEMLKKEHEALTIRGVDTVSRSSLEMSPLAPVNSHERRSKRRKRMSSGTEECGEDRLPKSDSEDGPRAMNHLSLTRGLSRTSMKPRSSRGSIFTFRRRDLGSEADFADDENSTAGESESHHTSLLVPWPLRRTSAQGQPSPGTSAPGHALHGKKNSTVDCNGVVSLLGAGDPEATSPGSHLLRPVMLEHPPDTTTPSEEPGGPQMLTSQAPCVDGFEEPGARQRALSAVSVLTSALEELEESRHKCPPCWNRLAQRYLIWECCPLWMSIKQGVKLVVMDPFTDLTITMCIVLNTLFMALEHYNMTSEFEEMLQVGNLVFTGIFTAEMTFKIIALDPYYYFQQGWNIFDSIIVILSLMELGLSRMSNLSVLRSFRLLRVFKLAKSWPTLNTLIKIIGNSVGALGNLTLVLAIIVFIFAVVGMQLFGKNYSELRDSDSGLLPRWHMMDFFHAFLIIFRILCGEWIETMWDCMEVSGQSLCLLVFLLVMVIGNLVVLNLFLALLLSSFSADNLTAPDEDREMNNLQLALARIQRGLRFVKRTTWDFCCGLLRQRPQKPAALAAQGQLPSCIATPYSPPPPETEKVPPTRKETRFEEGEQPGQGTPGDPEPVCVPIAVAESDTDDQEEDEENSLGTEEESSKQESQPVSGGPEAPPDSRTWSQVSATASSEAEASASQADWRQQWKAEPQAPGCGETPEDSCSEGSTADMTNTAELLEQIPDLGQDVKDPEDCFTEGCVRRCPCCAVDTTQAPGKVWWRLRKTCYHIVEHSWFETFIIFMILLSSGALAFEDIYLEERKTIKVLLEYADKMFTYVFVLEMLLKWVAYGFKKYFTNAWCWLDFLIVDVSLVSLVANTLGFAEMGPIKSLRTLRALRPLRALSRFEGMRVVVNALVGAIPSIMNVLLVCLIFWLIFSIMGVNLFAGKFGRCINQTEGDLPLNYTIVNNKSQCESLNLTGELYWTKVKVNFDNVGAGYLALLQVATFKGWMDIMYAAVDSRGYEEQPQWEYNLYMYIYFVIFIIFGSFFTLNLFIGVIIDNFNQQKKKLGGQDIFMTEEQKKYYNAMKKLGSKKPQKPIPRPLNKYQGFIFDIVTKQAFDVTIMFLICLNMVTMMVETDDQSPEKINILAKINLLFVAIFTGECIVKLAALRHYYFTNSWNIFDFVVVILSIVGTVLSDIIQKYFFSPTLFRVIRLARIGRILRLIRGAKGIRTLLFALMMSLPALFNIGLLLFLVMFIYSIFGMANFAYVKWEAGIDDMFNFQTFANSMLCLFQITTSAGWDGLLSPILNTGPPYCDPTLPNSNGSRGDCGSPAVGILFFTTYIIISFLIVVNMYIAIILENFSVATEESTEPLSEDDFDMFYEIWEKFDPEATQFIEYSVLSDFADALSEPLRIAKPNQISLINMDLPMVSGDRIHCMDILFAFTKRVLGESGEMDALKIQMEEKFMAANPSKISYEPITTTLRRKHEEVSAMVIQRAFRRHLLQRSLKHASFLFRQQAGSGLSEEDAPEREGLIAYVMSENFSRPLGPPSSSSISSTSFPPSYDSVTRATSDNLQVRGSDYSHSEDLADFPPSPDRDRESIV
Expect pIC50 as a plain number equal to -log10 of the molar concentration.

Inquiry: Identify measured pIC50 obtained with NaV1.5 (Homo sapiens (Human)) for `O=S(=O)(Nc1cscn1)c1c(F)cc(NCc2c(F)ccc(F)c2CN2C3CCC2CC3)cc1F` .
Reply text: 4.60

Inquiry: Name the value of pIC50 reported for O=S(=O)(Nc1cscn1)c1ccc(NCc2c(F)cccc2CN2C3CCC2CC3)c(Cl)c1F [Example 6, 2,2,2-trifluoroacetate] when tested on NaV1.5 (Homo sapiens (Human)).
Reply text: 4.82

Inquiry: Please report the measured pIC50 for Cc1c(NCc2c(F)cccc2CN2C3CCC2CC3)ccc(S(=O)(=O)Nc2cscn2)c1F [Example 7, 2,2,2-trifluoroacetate] tested on NaV1.5 (Homo sapiens (Human)).
Reply text: 4.67

Inquiry: For NaV1.5 (Homo sapiens (Human)), give the measured pIC50 of the entry CC(c1c(F)ccc(F)c1CNc1cc(F)c(S(=O)(=O)Nc2cscn2)c(F)c1)N1C2CCC1CC2 (stereo not drawn) [Example 14, 2,2,2-trifluoroacetate]
Reply text: 4.89

Inquiry: Answer with pIC50 of O=S(=O)(Nc1cscn1)c1c(F)cc(NCc2c(F)cccc2CN2C3CCC2CC3)cc1F [Example 9, 2,2,2-trifluoroacetate] measured for NaV1.5 (Homo sapiens (Human)).
Reply text: 4.69

Inquiry: Give pIC50; test system NaV1.5 (Homo sapiens (Human)); compound COc1ccc(F)c(CNc2cc(F)c(S(=O)(=O)Nc3cscn3)c(F)c2)c1CN1C2CCC1CC2 [Example 11, 2,2,2-trifluoroacetate]
Reply text: 4.56

###

- target_of_assay: NaV1.6 (Homo sapiens (Human), UniProt Q9UQD0)
- Sequence (Q9UQD0 whole entry): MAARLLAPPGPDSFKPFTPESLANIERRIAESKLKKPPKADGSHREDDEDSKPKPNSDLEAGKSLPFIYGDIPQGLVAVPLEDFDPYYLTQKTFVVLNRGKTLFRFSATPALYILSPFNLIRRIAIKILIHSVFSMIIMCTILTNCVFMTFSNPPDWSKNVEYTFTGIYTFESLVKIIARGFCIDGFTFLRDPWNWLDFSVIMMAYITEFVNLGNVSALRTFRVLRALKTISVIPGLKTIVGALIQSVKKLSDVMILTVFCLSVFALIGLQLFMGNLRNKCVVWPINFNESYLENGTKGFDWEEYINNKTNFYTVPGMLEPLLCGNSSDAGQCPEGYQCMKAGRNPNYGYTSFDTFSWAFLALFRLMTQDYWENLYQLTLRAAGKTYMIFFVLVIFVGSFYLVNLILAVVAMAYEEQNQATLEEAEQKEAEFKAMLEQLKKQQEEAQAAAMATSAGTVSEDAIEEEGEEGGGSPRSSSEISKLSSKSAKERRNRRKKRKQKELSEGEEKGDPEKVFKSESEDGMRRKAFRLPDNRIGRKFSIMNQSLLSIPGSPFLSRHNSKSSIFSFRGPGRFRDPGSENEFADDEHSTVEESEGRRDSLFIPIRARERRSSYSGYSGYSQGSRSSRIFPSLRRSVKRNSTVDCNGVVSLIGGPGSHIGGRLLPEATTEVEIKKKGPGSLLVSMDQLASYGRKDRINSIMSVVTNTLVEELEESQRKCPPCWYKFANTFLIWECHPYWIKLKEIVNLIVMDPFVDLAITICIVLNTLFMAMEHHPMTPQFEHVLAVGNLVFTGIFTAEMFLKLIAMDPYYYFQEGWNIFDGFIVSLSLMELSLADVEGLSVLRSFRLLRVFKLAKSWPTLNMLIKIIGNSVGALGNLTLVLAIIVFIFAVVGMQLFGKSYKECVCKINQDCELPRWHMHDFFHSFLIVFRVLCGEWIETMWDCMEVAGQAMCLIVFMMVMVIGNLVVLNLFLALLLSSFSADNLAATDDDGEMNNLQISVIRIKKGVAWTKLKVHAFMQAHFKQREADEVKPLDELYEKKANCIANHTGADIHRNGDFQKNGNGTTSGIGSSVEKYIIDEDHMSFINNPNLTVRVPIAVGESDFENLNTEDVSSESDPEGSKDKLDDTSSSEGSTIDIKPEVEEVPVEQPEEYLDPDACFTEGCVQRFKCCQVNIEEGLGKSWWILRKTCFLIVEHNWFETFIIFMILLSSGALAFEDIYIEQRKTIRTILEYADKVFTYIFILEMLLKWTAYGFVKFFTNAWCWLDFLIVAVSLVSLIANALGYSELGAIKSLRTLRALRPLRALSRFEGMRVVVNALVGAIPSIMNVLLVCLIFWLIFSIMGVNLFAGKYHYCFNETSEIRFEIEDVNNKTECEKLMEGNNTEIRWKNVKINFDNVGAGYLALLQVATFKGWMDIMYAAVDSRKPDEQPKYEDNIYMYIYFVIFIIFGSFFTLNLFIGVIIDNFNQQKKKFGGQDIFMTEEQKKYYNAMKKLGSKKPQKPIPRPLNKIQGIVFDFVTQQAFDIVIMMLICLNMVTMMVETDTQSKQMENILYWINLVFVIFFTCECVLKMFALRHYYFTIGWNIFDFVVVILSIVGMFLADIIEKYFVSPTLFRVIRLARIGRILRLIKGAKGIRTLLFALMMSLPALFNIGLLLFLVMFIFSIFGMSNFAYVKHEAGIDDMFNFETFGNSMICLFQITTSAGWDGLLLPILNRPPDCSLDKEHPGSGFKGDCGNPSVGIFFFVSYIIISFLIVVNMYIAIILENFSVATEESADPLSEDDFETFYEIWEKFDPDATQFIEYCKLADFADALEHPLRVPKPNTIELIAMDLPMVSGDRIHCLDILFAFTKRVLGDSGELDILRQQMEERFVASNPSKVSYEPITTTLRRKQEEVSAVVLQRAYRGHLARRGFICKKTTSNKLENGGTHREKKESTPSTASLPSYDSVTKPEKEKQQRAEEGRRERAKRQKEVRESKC
- Sequence (Q07699 19-218 partner): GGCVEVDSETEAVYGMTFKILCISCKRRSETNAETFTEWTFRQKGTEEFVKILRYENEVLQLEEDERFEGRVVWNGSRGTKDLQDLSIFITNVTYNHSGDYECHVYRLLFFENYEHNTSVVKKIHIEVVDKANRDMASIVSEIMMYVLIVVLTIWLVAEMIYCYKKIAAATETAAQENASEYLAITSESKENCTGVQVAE
- assay_explanation: Sodium Influx Assay (Flux) NaV1.6
- Type: cell-based
- measurement_conditions: Trex HEK293 cells, ANG2 dye, inhibition of sodium ion influx
pIC50: −log10 of the molar value.
Decide by pIC50: equal to or exceeding 7 means true (1), less means false (0).

Inquiry: Would you say Cc1c(NCc2c(F)cccc2CN2C3CCC2CC3)ccc(S(=O)(=O)Nc2ccon2)c1F [Example 5, 2,2,2-trifluoroacetate] shows pIC50 at minimum 7?
Reply text: false (0)

Inquiry: Test whether the compound C[C@H](c1c(F)ccc(F)c1CNc1cc(F)c(S(=O)(=O)Nc2cscn2)c(F)c1)N1C2CCC1CC2 (single isomer, unassigned) [Example 15b] records pIC50 of 7 or higher.
Reply text: false (0)

Inquiry: Does pIC50 meet or surpass 7 for Cc1c(NCc2c(F)cccc2CN2C3CCC2CC3)cc(F)c(S(=O)(=O)Nc2ccon2)c1F [Example 4] ?
Reply text: true (1)

Inquiry: Does COc1ccc(F)c(CNc2ccc(S(=O)(=O)Nc3cscn3)c(F)c2F)c1CN1C2CCC1CC2 [Example 12, 2,2,2-trifluoroacetate] have a reported pIC50 of at least 7?
Reply text: true (1)

Inquiry: Form field: pIC50 at least 7? Entry: O=S(=O)(Nc1cscn1)c1c(F)cc(NCc2c(F)ccc(F)c2CN2C3CCC2CC3)cc1F [Example 10]
Reply text: true (1)

Inquiry: Dear colleague, could you confirm whether O=S(=O)(Nc1ccsn1)c1c(F)cc(NCc2c(F)cccc2CN2C3CCC2CC3)cc1F [Example 1] has pIC50 at or above 7?
Reply text: true (1)

Inquiry: pIC50 >= 7 for COc1ccc(F)c(CNc2cc(F)c(S(=O)(=O)Nc3cscn3)cc2Cl)c1CN(C)C(C)C [Example 17, 2,2,2-trifluoroacetate] ?
Reply text: true (1)

Inquiry: Could you please find out whether O=S(=O)(Nc1cscn1)c1c(F)cc(NCc2c(F)cccc2CN2C3CCC2CC3)cc1F [Example 9, 2,2,2-trifluoroacetate] has pIC50 that meets 7 or exceeds it?
Reply text: true (1)

Inquiry: Textbook exercise: given the entry C[C@@H](c1c(F)ccc(F)c1CNc1cc(F)c(S(=O)(=O)Nc2cscn2)c(F)c1)N1C2CCC1CC2 (single isomer, unassigned) [Example 15a] , state whether its pIC50 is greater than or equal to 7.
Reply text: false (0)

Inquiry: Given the entry CC(C)Oc1ccc(F)c(CNc2cc(F)c(S(=O)(=O)Nc3cscn3)c(F)c2)c1CN(C)C(C)C [Example 8] , answer whether its pIC50 meets or surpasses 7.
Reply text: true (1)

Inquiry: Is pIC50 for O=S(=O)(Nc1ccsn1)c1ccc(NCc2c(F)cccc2CN2C3CCC2CC3)c(F)c1F [Example 13, 2,2,2-trifluoroacetate] at or above 7?
Reply text: false (0)

Inquiry: Dear colleague, could you confirm whether CC(c1c(F)ccc(F)c1CNc1cc(F)c(S(=O)(=O)Nc2cscn2)c(F)c1)N1C2CCC1CC2 (centres unmarked) [Example 14, 2,2,2-trifluoroacetate] has pIC50 at or above 7?
Reply text: false (0)

Values compiled from patent US10745392B2.
